Reported pIC50 by item:
system tested: Alpha-galactosidase A (Homo sapiens, UniProt P06280)
Sequence (P06280 whole entry): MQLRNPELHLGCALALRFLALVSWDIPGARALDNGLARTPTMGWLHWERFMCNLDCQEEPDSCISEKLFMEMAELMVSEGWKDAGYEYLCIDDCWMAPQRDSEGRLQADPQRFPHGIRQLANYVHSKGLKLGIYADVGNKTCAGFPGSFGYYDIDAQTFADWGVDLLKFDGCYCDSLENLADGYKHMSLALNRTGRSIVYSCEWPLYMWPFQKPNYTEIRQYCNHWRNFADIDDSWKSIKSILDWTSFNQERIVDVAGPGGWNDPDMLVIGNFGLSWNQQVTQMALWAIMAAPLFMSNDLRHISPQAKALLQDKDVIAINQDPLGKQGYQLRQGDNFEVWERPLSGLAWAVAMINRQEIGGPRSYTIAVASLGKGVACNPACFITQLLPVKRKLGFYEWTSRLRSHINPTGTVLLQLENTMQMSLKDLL
procedure summary: Inhibition of human recombinant lysosomal alpha-GalA using 4-methylumbelliferyl-[…] as substrate preincubated for 45 mins followed by substrate addition and measured after 30 mins by fluorescence spectrophotometric assay
On this scale, pIC50 is minus log10 of a concentration expressed in M (mol/L).

O=C(CCCCC(=O)NC(COCc1cn(CCCc2cn(C[C@@H]3NC[C@@H](O)[C@H]3O)nn2)nn1)(COCc1cn(CCCc2cn(C[C@@H]3NC[C@@H](O)[C@H]3O)nn2)nn1)COCc1cn(CCCc2cn(C[C@@H]3NC[C@@H](O)[C@H]3O)nn2)nn1)NC(COCc1cn(CCCc2cn(C[C@@H]3NC[C@@H](O)[C@H]3O)nn2)nn1)(COCc1cn(CCCc2cn(C[C@@H]3NC[C@@H](O)[C@H]3O)nn2)nn1)COCc1cn(CCCc2cn(C[C@@H]3NC[C@@H](O)[C@H]3O)nn2)nn1	3.32

INPUT: What value of pIC50 has been reported for the following molecule? `NC(COCc1cn(CCOCCOc2ccc(-c3cn(C[C@H]4NC[C@@H](O)[C@H]4O)nn3)cc2)nn1)(COCc1cn(CCOCCOc2ccc(-c3cn(C[C@H]4NC[C@@H](O)[C@H]4O)nn3)cc2)nn1)COCc1cn(CCOCCOc2ccc(-c3cn(C[C@H]4NC[C@@H](O)[C@H]4O)nn3)cc2)nn1`
OUTPUT: 4.72

INPUT: Now try `O=C(CCCCC(=O)NC(COCc1cn(C[C@H]2NC[C@@H](O)[C@H]2O)nn1)(COCc1cn(C[C@H]2NC[C@@H](O)[C@H]2O)nn1)COCc1cn(C[C@H]2NC[C@@H](O)[C@H]2O)nn1)NC(COCc1cn(C[C@H]2NC[C@@H](O)[C@H]2O)nn1)(COCc1cn(C[C@H]2NC[C@@H](O)[C@H]2O)nn1)COCc1cn(C[C@H]2NC[C@@H](O)[C@H]2O)nn1` .
OUTPUT: 3.38
